system: M14 melanoma; experiment: NCI tumour cell line growth inhibition, 48 h
Recorded GI50 values for a group of compounds are listed next.

>>> value("COC(=O)Nc1nc2ccc(Oc3ccc(NC(=O)Nc4cccc(C(=O)O)c4)cc3)cc2[nH]1")
"6750 nM"
>>> value("O=c1cc(-c2cccc(C(F)(F)F)c2)[nH]c2cc3c(cc12)OCO3")
"410 nM"

Now for the compound whose GI50 we want.
Tell me reported GI50 for CC(C)(C)NC(C1=CC(C)(C)c2ccccc2C1=O)c1ccccc1 (stereo not drawn) , tested with M14 melanoma.
1520 nM

---

Listed here: items and their measured TGI.
system: SNB-75 CNS; experiment: NCI tumour cell line growth inhibition, 48 h

Here's what some known entries look like.
>>> value("CNC(=O)CN(CC(=O)NC)C(=O)NC")
"> 100 µM"
>>> value("Cn1ccnc1C(=O)/C=C/c1ccc(C(=O)Nc2ccc(Cl)cc2)cc1")
"> 33.3 µM"

Attention now shifts to the item below.
So what does the record say about TGI for N#C[S-].[Nd+3].c1cnc2c(c1)ccc1cccnc12.c1cnc2c(c1)ccc1cccnc12.c1cnc2c(c1)ccc1cccnc12 ?
26.2 µM
